System: Trypanosoma brucei brucei
Assay: Antitrypanosomal activity against bloodstream form Trypanosoma brucei brucei 427 […] assessed as cell viability after 48 hrs by propidium iodide staining based flow cytometric analysis
Assay type: functional, organism-based
Settings: Trypanosoma brucei, 427, 48 h
metric: EC50 (nM)

[I] CCOC(=O)c1csc(NC(=O)c2csc(NC(=O)c3csc(NC(=O)OC(C)(C)C)n3)n2)n1
[II] CC1CS(=O)(=O)CCN1/N=C/c1ccc([N+](=O)[O-])o1 (configuration not stated) [NIFURTIMOX]
Lab log: flag the item ( I or II ) with the smaller EC50 figure. Your answer should be the label attached to the chosen record.
I
(I: 57 nM, II: 750 nM)
